Below, each entry is listed alongside its reported pEC50.
System: SARS-CoV-2-GHB-03021/2020
Test details: microbe, parasite or virus in culture
Format: cell-based
Experimental conditions: Severe acute respiratory syndrome coronavirus 2, Vero C1008, 96 h; read-out: VeroE6 + CP (EC50)
pEC50: −log10 of the molar value.

{"columns": ["Molecule", "Assay target", "pEC50"],
 "data": [
  ["O=C1NCC[C@H]1C[C@H](NC(=O)[C@@H]1[C@H]2CCC[C@H]2CN1C(=O)c1cc2c(Cl)ccc(OCc3ccccc3)c2[nH]1)C(=O)CO [Compound 128]", "SARS-CoV-2-GHB-03021/2020", "5.00 to 6.00"],
  ["COc1cccc2[nH]c(C(=O)N3CCc4ccccc4[C@H]3C(=O)N[C@@H](C[C@@H]3CCNC3=O)C(=O)CO)cc12 [Compound 106]", "SARS-CoV-2-GHB-03021/2020", "4.00 to 5.00"],
  ["COc1cccc2[nH]c(C(=O)N3C[C@@H]4CCC[C@@H]4[C@H]3C(=O)N[C@@H](C[C@@H]3CCNC3=O)C(=O)CO)c(F)c12 [Compound 151]", "SARS-CoV-2-GHB-03021/2020", "4.00 to 5.00"],
  ["COc1cccc2[nH]c(C(=O)N3C[C@@H]4CCC[C@@H]4[C@H]3C(=O)N[C@@H](C[C@@H]3CCNC3=O)C(=O)COCc3ccccc3)cc12 [Compound 27A]", "SARS-CoV-2-GHB-03021/2020", "5.00 to 6.00"],
  ["O=C(NC1CC1)C(=O)[C@H](C[C@@H]1CCNC1=O)NC(=O)[C@@H]1CC2(CCN1C(=O)c1cc3c(C4CC4)cccc3[nH]1)CC2 [Compound 180]", "SARS-CoV-2-GHB-03021/2020", "5.00 to 6.00"],
  ["O=C(NCc1ccccc1)C(=O)[C@H](C[C@@H]1CCNC1=O)NC(=O)[C@@H]1C[C@@H](C2CCCCC2)CN1C(=O)c1cc2ccccc2[nH]1 [Compound 20]", "SARS-CoV-2-GHB-03021/2020", "5.00 to 6.00"],
  ["COc1cccc2[nH]c(C(=O)N3C[C@@H]4CCC[C@@H]4[C@H]3C(=O)NC(C[C@@H]3CCNC3=O)C(=O)C(=O)NCc3ccccc3)nc12 (stereo partly drawn) [Compound 36]", "SARS-CoV-2-GHB-03021/2020", "4.00 to 5.00"],
  ["COc1cccc2[nH]c(C(=O)N3C[C@@H]4CCC[C@@H]4[C@H]3C(=O)N[C@@H](C[C@@H]3CCNC3=O)C(=O)c3nc4ccccc4o3)cc12 [Compound 75]", "SARS-CoV-2-GHB-03021/2020", "5.00 to 6.00"],
  ["COc1ccc(F)c2[nH]c(C(=O)N3C[C@@H]4CCC[C@@H]4[C@H]3C(=O)N[C@@H](C[C@@H]3CCNC3=O)C(=O)CO)cc12 [Compound 65]", "SARS-CoV-2-GHB-03021/2020", "> 6.00"],
  ["COc1cccc2[nH]c(C(=O)N3C[C@@H]4CCC[C@@H]4[C@H]3C(=O)N[C@@H](C[C@@H]3CCNC3=O)C(=O)CO)cc12 [Compound 27]", "SARS-CoV-2-GHB-03021/2020", "5.00 to 6.00"],
  ["COc1cccc2[nH]c(C(=O)N3C[C@@H]4CCC[C@@H]4[C@H]3C(=O)N[C@@H](CN3C[C@H](O)CC3=O)C(=O)C(=O)NC3CC3)cc12 [Compound 178]", "SARS-CoV-2-GHB-03021/2020", "< 4.30"],
  ["O=C(NCc1ccccc1)C(=O)C(C[C@@H]1CCNC1=O)NC(=O)[C@@H]1C[C@@H](c2ccccc2)CN1C(=O)c1cc2ccccc2[nH]1 (stereo partly drawn) [Compound 7]", "SARS-CoV-2-GHB-03021/2020", "5.00 to 6.00"]
]}
